Provenance of the data: the Immune Epitope Database (IEDB)

Target: HLA-B*45:01
Assay: IEDB peptide-MHC binding, purified MHC/competitive/radioactivity; filed as Kd, often an IC50 or EC50 that approximates it; bounds were set here for any values at or beyond the usual limits of such assays
Conditions: source organism: SARS coronavirus Tor2
pKd: −log10 of the molar value.
Classify by measured pKd: condition met if it is equal to or exceeds 6, condition not met if it is smaller.

Confirm if pKd reported for the sequence "REIGFIVPGL" is 6 or above.
condition met

Confirm if pKd reported for the sequence "IEELFYSYAT" is 6 or above.
condition met

Confirm if pKd reported for the sequence "GECPKFVFPL" is 6 or above.
condition not met

Confirm if pKd reported for the sequence "SEEVVENPTI" is 6 or above.
condition met

Confirm if pKd reported for the sequence "KEFTRPLISG" is 6 or above.
condition not met

Confirm if pKd reported for the sequence "SAFFGMSRIG" is 6 or above.
condition not met

Confirm if pKd reported for the sequence "DEWSVATFY" is 6 or above.
condition not met

Confirm if pKd reported for the sequence "QELGKYEQYI" is 6 or above.
condition not met

Confirm if pKd reported for the sequence "VDYGVRFFFY" is 6 or above.
condition met

====

Target: HLA-B*44:02
Assay: IEDB peptide-MHC binding, purified MHC/competitive/radioactivity; filed as Kd, often an IC50 or EC50 that approximates it; bounds were set here for any values at or beyond the usual limits of such assays
Settings: source organism: Dengue virus 3 Martinique/1243/1999
Please go through the items and note down their Kd.
Express the result in nM but write the number alone.

Give the reported value of Kd for this record: "AEIPLQWIAS"
200

Give the reported value of Kd for this record: "AEITPQAST"
16.5

Give the reported value of Kd for this record: "NEEKITQQM"
578

====

Please go through the items and note down their Kd.
Biological target: HLA-A*02:06
Assay: IEDB peptide-MHC binding, purified MHC/competitive/radioactivity; filed as Kd, often an IC50 or EC50 that approximates it; bounds were set here for any values at or beyond the usual limits of such assays
Conditions: source organism: Trypanosoma cruzi
Express the result in nM but write the number alone.

Give the reported value of Kd for this record: "LLGLCGFSAL"
629

Give the reported value of Kd for this record: "FTNNKFTLS"
328

====

Molecular target: HLA-B*18:01
Assay: IEDB peptide-MHC binding, purified MHC/competitive/radioactivity; filed as Kd, often an IC50 or EC50 that approximates it; bounds were set here for any values at or beyond the usual limits of such assays
Conditions: source organism: Mammarenavirus machupoense
REPORTED PROPERTY: Kd (nM)
Express the result in nM but write the number alone.

Give the reported value of Kd for this record: "EELSLMYETL"
2460

====

Biological target: HLA-A*33:01
Assay: IEDB peptide-MHC binding, purified MHC/competitive/radioactivity; filed as Kd, often an IC50 or EC50 that approximates it; bounds were set here for any values at or beyond the usual limits of such assays
Conditions: source organism: Lassa virus Josiah
Please go through the items and note down their Kd.

Recall the reported Kd of "SCPKPHRLNH" on HLA-A*33:01 and write it down.
≥ 34.3 µM

Recall the reported Kd of "TSFYLISIFL" on HLA-A*33:01 and write it down.
≥ 31.1 µM
